System: sigma 2 receptor (Rattus norvegicus)
Construct: A crude P2 membrane fraction was prepared from livers of male rats (Sprague-Dawley rats); from tissue; host or cells: rat liver (male Sprague-Dawley), crude P2 membrane fraction
Experimental Protocol: Sigma 2-selective receptor binding inhibition test ([3H]-DTG, rat liver P2 membrane fraction)
Applied Conditions: test compound 10 nM; [3H]-DTG 1 nM, 500 nM pentazocine, rat liver P2 fraction; read-out: Inhibitory rate against sigma 2 (%, 10 nM)
Structures can show the parent of a compound that is named as a salt.
Reported Endpoint: inhibition at 0.01 µM (%)
Please state the figure in %; there is no need to write the unit.

Take a look at these entries with their results.
- Compound: "O=C1c2cccc(F)c2CN1CC1CCN(CCOc2ccc(F)cc2)CC1 [Example 181, fumarate]"
  Reported Endpoint: "inhibition at 0.01 µM"
  Unit Of Measure: "%"
  Reported: 70
- Compound: "O=C1c2ccc(Cl)cc2CN1CC1CCN(CCOc2ccc(F)cc2)CC1 [Example 178, fumarate]"
  Reported Endpoint: "inhibition at 0.01 µM"
  Unit Of Measure: "%"
  Reported: 50
- Compound: "O=C1c2ccccc2CN1CC1CCN(CCOc2cccc(F)c2)CC1 [Example 118, fumarate]"
  Reported Endpoint: "inhibition at 0.01 µM"
  Unit Of Measure: "%"
  Reported: 50
- Compound: "O=C1c2ccccc2CN1CC1CCN(CCc2cccc3ccccc23)CC1 [Example 97, fumarate]"
  Reported Endpoint: "inhibition at 0.01 µM"
  Unit Of Measure: "%"
  Reported: 59

Please fill in: inhibition at 0.01 µM reported for O=C1c2ccccc2CN1CC1CCN(CCN2CCc3ccccc32)CC1 [Example 53, fumarate] = 57

Please fill in: inhibition at 0.01 µM reported for O=C1c2ccccc2CN1CC1CCN(CC(=O)N2CCCc3ccccc32)CC1 [Example 48, hydrochloride] = 59

Please fill in: inhibition at 0.01 µM reported for O=C1c2ccccc2CN1CC1CCN(CCSc2ccccc2F)CC1 [Example 112, fumarate] = 60

Please fill in: inhibition at 0.01 µM reported for COc1ccccc1CCN1CCC(CN2Cc3cc(Br)ccc3C2=O)CC1 [Example 167, hydrochloride] = 62

Please fill in: inhibition at 0.01 µM reported for O=C1c2ccccc2CN1CC1CCN(CCOc2ccccc2F)CC1 [Example 117, fumarate] = 52

====

System: sigma 2 receptor (Rattus norvegicus, UniProt Q5U3Y7)
Sequence (Q5U3Y7 1-176): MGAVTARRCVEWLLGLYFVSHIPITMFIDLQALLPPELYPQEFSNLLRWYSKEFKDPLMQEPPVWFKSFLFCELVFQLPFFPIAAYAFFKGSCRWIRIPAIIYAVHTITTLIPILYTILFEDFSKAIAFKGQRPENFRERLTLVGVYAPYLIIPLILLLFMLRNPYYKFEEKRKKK
pKi: −log10 of the molar value. Structures can show the parent of a compound that is named as a salt.
Lab note: anything with pKi at or over 8 counts as Fulfilled; the rest go in Not fulfilled.

IN: Kindly determine if pKi recorded for O=C1c2ccc(Br)cc2CN1CC1CCN(CC(O)c2ccc(F)cc2)CC1 (racemic) [Example 17, hydrochloride] is above or exactly 8.
OUT: Not fulfilled

IN: Kindly determine if pKi recorded for COc1ccc2c(c1)CN(CC1CCN(CC(=O)c3ccc(F)cc3)CC1)C2=O [Example 9, hydrochloride] is above or exactly 8.
OUT: Fulfilled

IN: Kindly determine if pKi recorded for O=C(CN1CCC(CN2Cc3c(Br)cccc3C2=O)CC1)c1ccc(F)cc1 [Example 2, hydrochloride] is above or exactly 8.
OUT: Fulfilled

IN: Kindly determine if pKi recorded for O=C(CCCN1CCC(CN2Cc3ccccc3C2=O)CC1)c1ccc(F)cc1 [Example 31, hydrochloride] is above or exactly 8.
OUT: Not fulfilled

IN: Kindly determine if pKi recorded for "O=C1c2ccccc2CN1CC1CCN(CCc2c[nH]c3ccccc23)CC1" is above or exactly 8.
OUT: Not fulfilled

====

System: sigma 2 receptor (Rattus norvegicus)
Construct: A crude P2 membrane fraction was prepared from livers of male rats (Sprague-Dawley rats); from tissue; host or cells: rat liver (male Sprague-Dawley), crude P2 membrane fraction
Experimental Protocol: Sigma 2-selective receptor binding inhibition test ([3H]-DTG, rat liver P2 membrane fraction)
Applied Conditions: test compound 10 nM; [3H]-DTG 1 nM, 500 nM pentazocine, rat liver P2 fraction; read-out: Inhibitory rate against sigma 2 (%, 10 nM)
Counter-ions that a name gives are not always drawn.
The reader will find reported inhibition at 0.01 µM values listed item by item below.
Please state the figure in %; there is no need to write the unit.

Please fill in: inhibition at 0.01 µM reported for O=C1c2ccccc2CN1CC1CCN(CCc2ccccc2C(F)(F)F)CC1 [Example 96, fumarate] = 66

Please fill in: inhibition at 0.01 µM reported for COc1ccccc1CCN1CCC(CN2Cc3cc(C#N)ccc3C2=O)CC1 [Example 170, fumarate] = 52

====

The reader will find reported pKi values listed item by item below.
System: sigma 2 receptor (Rattus norvegicus, UniProt Q5U3Y7)
Structures can show the parent of a compound that is named as a salt.
On this scale, pKi is minus log10 of a concentration expressed in M (mol/L).

- Compound: "O=C(CN1CCC(CN2CCc3ccccc3C2=O)CC1)c1ccc(F)cc1 [Example 137, hydrochloride]"
  pKi: 8.11
- Compound: "COc1ccccc1CCN1CCC(CN2Cc3ccccc3C2=O)CC1 [Example 26, hydrochloride]"
  pKi: 8.00
- Compound: "O=C(CN1CCC(CN2Cc3cc(F)ccc3C2=O)CC1)c1ccc(F)cc1 [Example 154, hydrochloride]"
  pKi: 7.80
- Compound: "O=C(CN1CCC(CN2Cc3c(F)cccc3C2=O)CC1)c1ccc(F)cc1 [Example 6, hydrochloride]"
  pKi: 8.06
- Compound: "O=C(CN1CCC(CN2Cc3ccccc3C2=O)CC1)c1ccc(F)cc1 [Example 1, hydrochloride]"
  pKi: 7.89
- Compound: "O=C(CN1CCC(CN2Cc3ccc(F)cc3C2=O)CC1)c1ccc(F)cc1 [Example 7, hydrochloride]"
  pKi: 7.80

Short answer on sigma 2 receptor (Rattus norvegicus, UniProt Q5U3Y7) for O=C(CN1CCC(CN2Cc3cc(Br)ccc3C2=O)CC1)c1ccc(F)cc1 [Example 3, hydrochloride] , pKi: 8.15

Short answer on sigma 2 receptor (Rattus norvegicus, UniProt Q5U3Y7) for CC(C)(C)C(=O)CN1CCC(CN2Cc3ccccc3C2=O)CC1 [Example 24, hydrochloride] , pKi: 7.89

Short answer on sigma 2 receptor (Rattus norvegicus, UniProt Q5U3Y7) for O=C(CN1CCC(CN2Cc3ccccc3C2=O)CC1)c1ccccc1 [Example 13, hydrochloride] , pKi: 8.18

====

System: sigma 2 receptor (Rattus norvegicus, UniProt Q5U3Y7)
Construct: A crude P2 membrane fraction was prepared from livers of male rats (Sprague-Dawley rats); from tissue; host or cells: rat liver (male Sprague-Dawley), crude P2 membrane fraction
Experimental Protocol: Sigma 2-selective receptor binding inhibition test ([3H]-DTG, rat liver P2 membrane fraction)
Applied Conditions: test compound 10 nM; [3H]-DTG 1 nM, 500 nM pentazocine, rat liver P2 fraction; read-out: Inhibitory rate against sigma 2 (%, 10 nM)
Description: Sigma Binding Site-Binding Inhibition Test A crude P2 membrane fraction was prepared from livers of male rats (Sprague-Dawley rats) according to a method described in the literature (X. He, et al., J. Med. Chem., 36, pp. 566–571, 1993). […] The non-specific results were evaluated by using 1 μM haloperidol, and the scintillation analysis and the curve analysis were performed as described above.
Structures can show the parent of a compound that is named as a salt.
Reported Endpoint: inhibition at 0.01 µM (%)
Please state the figure in %; there is no need to write the unit.

Take a look at these entries with their results.
- Molecule: "O=C1c2ccccc2CN1CC1CCN(CCOc2ccccc2)CC1 [Example 114, fumarate]"
  inhibition at 0.01 µM (%): 51
- Molecule: "O=C1c2ccccc2CN1CC1CCN(CCSc2ccccc2)CC1 [Example 109, fumarate]"
  inhibition at 0.01 µM (%): 68
- Molecule: "COc1ccccc1C(=O)CN1CCC(CN2Cc3ccccc3C2=O)CC1 [Example 72, fumarate]"
  inhibition at 0.01 µM (%): 55
- Molecule: "O=C1c2ccc(Br)cc2CN1CC1CCN(CCOc2ccc(F)cc2)CC1 [Example 177, hydrochloride]"
  inhibition at 0.01 µM (%): 55
- Molecule: "O=C(CN1CCC(CN2Cc3ccoc3C2=O)CC1)c1ccc(F)cc1 [Example 158, fumarate]"
  inhibition at 0.01 µM (%): 57

Proceed to the following item.
Short answer on sigma 2 receptor (Rattus norvegicus, UniProt Q5U3Y7) for O=C(CN1CCC(CN2Cc3ccccc3C2=O)CC1)N1CCCCC1 [Example 50, fumarate] , inhibition at 0.01 µM: 52

meta.source: patent US7166617B2
